Listed below: -log IC50 values for each entry.
- Tested on: PDE IV
- measurement.notes: Inhibition of PDE IV activity
- Type: biochemical
I'd appreciate a reply containing only the number, no unit.

INSERT INTO measurements (smiles_representation, value_reported) VALUES
  ('COc1cc(C(=O)Nc2c(Cl)cncc2Cl)ccc1OC(F)F', 8.64),
  ('O=C(Nc1c(Cl)cncc1Cl)c1ccc(OC(F)F)c(OCC2CCC2)c1', 8.74),
  ('O=C(Nc1c(Cl)cncc1Cl)c1ccc(OC(F)F)c(OC2CCCC2)c1', 9.18);

Field: next molecule
Input "O=C(Nc1c(Cl)cncc1Cl)c1ccc(OC(F)F)c(OC(F)F)c1" . Output -log IC50: 8.42
